endpoint: melting point

// below: answered compounds
>  <compound>
CN1CCN(c2ccc([N+](=O)[O-])c(N)c2)CC1

>  <endpoint>
melting point

>  <value reported>
109 to 110 °C

$$$$
>  <compound>
Fc1c(F)c(F)c(-c2c3ccccc3c(-c3c(F)c(F)c(F)c(F)c3F)c3ccccc23)c(F)c1F

>  <endpoint>
melting point

>  <value reported>
337 to 338 °C

$$$$
>  <compound>
CC(=O)C=C(C)Nc1ccccc1C#N

>  <endpoint>
melting point

>  <value reported>
100 °C

$$$$
>  <compound>
COc1ncccc1-c1cccn2nc(Nc3ccc4ncccc4c3)nc12

>  <endpoint>
melting point

>  <value reported>
247 to 249 °C

$$$$
>  <compound>
O=c1ccc(S(=O)(=O)c2cc3ccc(F)cc3[nH]2)n[nH]1

>  <endpoint>
melting point

>  <value reported>
> 250 °C

$$$$

What measured melting point goes with O=C(Cc1ccc(Cl)c(Cl)c1)N1CCN(Cc2ccccc2)CC1CO (stereo not given) ?
148 to 150 °C

Next compound up: OC1(CNCc2ccccc2)CCN(CCCc2c[nH]c3ccc(-n4cnnc4)cc23)CC1
> 60 °C

Next compound up: CCC(=O)NCCC1CCc2cc(F)c3c(c21)C=CCO3 (stereo not given)
106 to 108 °C

Next compound up: O=C(NCCO)c1cccc(-c2ccc3ccn(Cc4ccc(Cl)cc4Cl)c3c2)c1
124 to 125 °C

Next compound up: O=C(C1CCCCC1)C1CCN(C(=O)c2cc(O)c(O)cc2[N+](=O)[O-])CC1
240 °C

----------
endpoint: melting point

// below: answered molecules
>  <molecule>
O=C(N1CC2CCC(C1)O2)C12CC3CC(CC(C3)C1)C2

>  <melting point>
134 to 136 °C

$$$$
>  <molecule>
CC1(C)CC(OC(=O)c2ccccc2)CC(C)(C)N1OP(=O)(c1ccccc1)c1ccccc1

>  <melting point>
169 to 173 °C

$$$$
>  <molecule>
O=C(c1ccc(F)cc1)N1CCC[C@H](c2nc(-c3ccc[nH]3)no2)C1

>  <melting point>
130 to 135 °C

$$$$

What measured melting point goes with COc1ccc(S(=O)(=O)Nc2cccc3c2Nc2ccccc2S3)cc1 ?
158 to 160 °C

Next molecule up: C=Cc1cnc2c(NC(=O)c3c(Cl)cccc3Cl)cccc2c1CC(=O)NCc1ccccn1
194 to 195 °C

Next molecule up: CC1(C)CN(CC(=O)c2ccccc2)c2cc([N+](=O)[O-])ccc2O1
125 to 128 °C

Next molecule up: CC(C)(C)OC(=O)C(Cc1ccccc1)NC(=O)c1ccc2c(Cl)cnc(Cl)c2c1 (racemic)
156 to 157 °C

Next molecule up: CC(=O)O[C@@H]1C2=C(OC(C(C)=O)=C[C@@H]2N2CCCCC2=O)SC1(C)C (relative stereo)
180 °C

----------
Reported melting point is given for each of the following compounds.

>  <compound>
CC(C)(C)Sc1c(CC(C)(C)C(=O)O)n(Cc2ccc(Cl)cc2)c2ccc(OCc3ccc(Cl)s3)cc12

>  <melting point>
182 to 184 °C

$$$$
>  <compound>
COc1ccc(Oc2cccc(C)c2)c(NS(C)(=O)=O)c1

>  <melting point>
87 to 88 °C

$$$$
>  <compound>
CC(C)(C)SCc1c(-c2ccc(S(C)(=O)=O)cc2)cnn(-c2ccc(F)cc2)c1=O

>  <melting point>
50 to 70 °C

$$$$
>  <compound>
COc1ccc(OC(=O)N2c3cc(Cl)ccc3NC(=O)[C@@H]2C)cc1

>  <melting point>
187 to 190 °C

$$$$
>  <compound>
CCCC(=O)NCCC1CCc2ccc3c(c21)OCO3 (stereo not given)

>  <melting point>
71 to 73 °C

$$$$
>  <compound>
O=C(c1nn(-c2ccc(F)cc2F)c2c1C1CCC2C1)N1CCc2ccccc2C1 (stereo not given)

>  <melting point>
134 to 138 °C

$$$$
>  <compound>
C[C@@H]1CCNC[C@@H]1N(C)c1ncnc2[nH]ccc12

>  <melting point>
158 °C

$$$$
>  <compound>
CCC(CC)c1cccc(C[C@H]2C(=O)O[C@H](c3ccccc3)[C@H](c3ccccc3)N2C(=O)OC(C)(C)C)c1

>  <melting point>
143 to 144 °C

$$$$

What measured melting point goes with COC(=O)c1cncn1C1c2ccccc2C(=O)CC1(C)C (stereo not given) ?
93 to 95 °C

Next compound up: CC#CCOc1ccc(S(=O)(=O)NC(COCCBr)C(=O)OC)cc1 (stereo not given)
45 to 46 °C

Next compound up: C=CCn1cc(C2CCN(CCOc3ccccc3C(=O)O)CC2)c2ccccc21
123 to 125 °C

Next compound up: Clc1ccc(C2CCc3ccccc3O2)cc1 (stereo not given)
76 to 77 °C

----------
Reported melting point is given for each of the following compounds.

// below: answered compounds
>  <compound>
Cn1c(=O)c2[nH]cnc2n(CCCC(=O)O)c1=O

>  <endpoint>
melting point

>  <value reported>
220 to 221 °C

$$$$
>  <compound>
N#CCCNC(=O)c1n[nH]cc1NC(=O)c1cc2ccccc2o1

>  <endpoint>
melting point

>  <value reported>
231 to 233 °C

$$$$
>  <compound>
CC(=O)c1ccc2c(c1)C(=O)C1(CCOC1=O)S2 (stereo not given)

>  <endpoint>
melting point

>  <value reported>
139 to 140 °C

$$$$
>  <compound>
Cc1nccc2[nH]c(=O)c(C(=O)NN)cc12

>  <endpoint>
melting point

>  <value reported>
> 310 °C

$$$$

Now let's try a different one.
What measured melting point goes with CCOC(=O)c1cn(C(C)(C)C)c2nc(N3CC4CCC(C3)N4C(=O)C(F)(F)F)c(F)cc2c1=O ?
205 °C

----------
Reported melting point is given for each of the following compounds.

What measured melting point goes with CO[C@@H]1C=C2C=C3C(=C(C)C(=O)N3C)C[C@]2(C)[C@@H](C)[C@H]1O ?
165 to 170 °C

Next compound up: C=CC(=O)OCCCCCCCCCCCOc1ccc(O)cc1
72 to 74 °C

Next compound up: O=c1c2c[nH]c3c(c-2nn1-c1ccccc1)CCC3
> 350 °C

Next compound up: NC1CN(c2cc3c(cc2F)c(=O)c(C(=O)O)cn3C2CC2)C1
246 to 247 °C

Next compound up: C#CCOc1ccc2c(c1)nc(N)c1nc(COCC)n(CC(C)(C)NS(C)(=O)=O)c12
175 to 176 °C

Next compound up: Cc1ccc(N(C(=O)CCl)c2c(F)cc(F)cc2Cl)cc1
137 to 140 °C

Next compound up: COc1cc(OC)nc(-n2nc(C)n(N)c2=O)n1
219 °C

Next compound up: CCOC(=O)CCCN1CCC[C@H](NCc2ccccc2OC)[C@@H]1c1ccccc1 (relative stereo)
75 to 90 °C

----------
Reported melting point is given for each of the following molecules.

>  <molecule>
Cc1ccc2c(c1)C(CCO)N(c1cccc([N+](=O)[O-])c1)N(C)C2=O (configuration not stated)

>  <melting point>
169 to 170 °C

$$$$
>  <molecule>
Cc1cc(C2=NN(C(N)=S)[C@H](C)Cc3cc4c(cc32)OCO4)ccc1[N+](=O)[O-]

>  <melting point>
123 to 125 °C

$$$$
>  <molecule>
COc1cccc2c1C(O)c1ccccc1C21CCN(C)CC1 (configuration not stated)

>  <melting point>
149 to 151 °C

$$$$
>  <molecule>
CC(C)N(CCN1C(=O)C(=O)c2cc(Br)ccc21)C(C)C

>  <melting point>
91 to 93 °C

$$$$
>  <molecule>
C#CCn1c(=O)ccc2cc(F)c(-n3c(=O)cc(C(F)(F)F)n(C)c3=O)cc21

>  <melting point>
236 to 238 °C

$$$$

What measured melting point goes with Cc1ccc(-c2cn3cc([N+](=O)[O-])ccc3n2)cc1 ?
205 to 206 °C

Next molecule up: Cc1[nH]c(C=O)c(C)c1-c1nc2ccc(C(=O)c3ccccc3)cc2[nH]1
253 to 255 °C

Next molecule up: COc1ccc2[nH]c3c(c2c1)C(=O)/C(=C/c1nc[nH]c1C)CC3
133 to 135 °C

Next molecule up: CC1Cc2ccc(Br)cc2C(c2ccc(N)cc2)=NN1C1CC1 (configuration not stated)
113 to 116 °C

Next molecule up: O=c1[nH]c2ccccc2c(=O)n1Cc1cccnc1
241 to 243 °C

Next molecule up: COc1cc2ncnc(C3C(=O)N(C)c4ccccc43)c2cc1OC (configuration not stated)
233 to 235 °C

Next molecule up: CC(=O)c1ccc2cc(O)ccc2c1O
195 to 200 °C

Next molecule up: Cc1oc(-c2ccccc2)nc1COc1ccc(COc2nn(C)cc2CC(=O)O)cc1
133 to 134 °C

Next molecule up: CCc1c(C(=O)O)nn(-c2ccc(Cl)cc2Cl)c1-c1ccc(Cl)cc1
215 °C

Next molecule up: COc1ccc(C2(C#Cc3cccc(-c4nc(C)no4)c3)CCC(=O)CC2)cc1OC1CCCC1
88 to 91 °C

Next molecule up: COC(=O)c1cncc(SCc2ccc(OC)cc2)c1
72 to 74 °C

Next molecule up: CC(C)(C)C1=NN(c2ccc(S(=O)(=O)O)cc2)C(c2ccc(F)cc2)C1 (configuration not stated)
92.9 °C
